experimental-setup: bacteroides fragilis, 12 h, 2 µM
Description: The drug is tested on Bacteroides fragilis strain: DS-208 for biotransformation. The drug concentrations were measured before and after a 12-h incubation by liquid-chromatography-coupled mass spectrometry (LC–MS)
quantity-name: Bacterial Biotransformation

• Br.CN1CCC[C@@H]1Cc1c[nH]c2ccc(CCS(=O)(=O)c3ccccc3)cc12 [ELETRIPTAN HYDROBROMIDE] = Compound NOT metabolized
• CC#C[C@]1(O)CC[C@H]2[C@@H]3CCC4=CC(=O)CCC4=C3[C@@H](c3ccc(N(C)C)cc3)C[C@@]21C = Compound NOT metabolized
• C=CCN1CC[C@]23c4c5ccc(O)c4O[C@H]2C(=O)CC[C@@]3(O)[C@H]1C5 = Compound metabolized
• COc1c(C)c2c(c(O)c1C/C=C(\C)CCC(=O)OCCN1CCOCC1)C(=O)OC2 [MYCOPHENOLATE MOFETIL] = Compound metabolized
• Cc1ccc(/C(=C\CN2CCCC2)c2ccccn2)cc1 = Compound NOT metabolized
• CN1CCN(CC/C=C2/c3ccccc3Sc3ccc(S(=O)(=O)N(C)C)cc32)CC1 = Compound NOT metabolized
• CC[C@@H](CO)NC(=O)[C@@H]1C=C2c3cccc4c3c(cn4C)C[C@H]2N(C)C1.O=C(O)/C=C\C(=O)O [METHYSERGIDE MALEATE] = Compound metabolized
• CC(=O)OCC(CCn1cnc2cnc(N)nc21)COC(C)=O = Compound metabolized
• CNC(=C[N+](=O)[O-])NCCSCc1ccc(CN(C)C)o1 = Compound metabolized
• CC(C)(C)NC(=O)[C@H]1CC[C@H]2[C@@H]3CC[C@H]4NC(=O)C=C[C@]4(C)[C@H]3CC[C@]12C [FINASTERIDE] = Compound metabolized
• CC[C@H](C)C(=O)O[C@H]1CCC=C2C=C[C@H](C)[C@H](CC[C@@H]3C[C@@H](O)CC(=O)O3)[C@H]21 = Compound metabolized
• O=C(CCCN1CCC(O)(c2ccc(Cl)cc2)CC1)c1ccc(F)cc1 = Compound NOT metabolized
• CC(C)(Oc1ccc(CCNC(=O)c2ccc(Cl)cc2)cc1)C(=O)O [BEZAFIBRATE] = Compound metabolized
• COc1ccc([C@@H]2Sc3ccccc3N(CCN(C)C)C(=O)[C@@H]2OC(C)=O)cc1 = Compound NOT metabolized
• CN1[C@@H]2CC[C@H]1C[C@@H](OC(=O)c1c[nH]c3ccccc13)C2 = Compound NOT metabolized
• CC(C)NCC(O)COc1ccc(CCOCC2CC2)cc1 (stereo unspecified) = Compound NOT metabolized

----------
assay-method-text: The drug is tested on Blautia hansenii strain: DSM20583 for biotransformation. The drug concentrations were measured before and after a 12-h incubation by liquid-chromatography-coupled mass spectrometry (LC–MS)
experimental-setup: 2 µM
quantity-name: Bacterial Biotransformation

* CCCCCNC(=N)N/N=C/c1c[nH]c2ccc(OC)cc12.O=C(O)/C=C\C(=O)O [TEGASEROD MALEATE] | Compound NOT metabolized
* CCc1oc2ccccc2c1C(=O)c1cc(Br)c(O)c(Br)c1 | Compound NOT metabolized
* CC(C)(C)NC(=O)[C@H]1CC[C@H]2[C@@H]3CC[C@H]4NC(=O)C=C[C@]4(C)[C@H]3CC[C@]12C [FINASTERIDE] | Compound NOT metabolized
* CCCN1C[C@H](CSC)C[C@@H]2c3cccc4[nH]cc(c34)C[C@H]21.CS(=O)(=O)O [PERGOLIDE MESYLATE] | Compound NOT metabolized
* CCc1nn(CCCN2CCN(c3cccc(Cl)c3)CC2)c(=O)n1CCOc1ccccc1 | Compound NOT metabolized
* COc1ccccc1N1CCN(CC(O)COc2cccc3ccccc23)CC1 (configuration not stated) | Compound NOT metabolized
* CC#C[C@]1(O)CC[C@H]2[C@@H]3CCC4=CC(=O)CCC4=C3[C@@H](c3ccc(N(C)C)cc3)C[C@@]21C | Compound metabolized
* CCN(CC)CCOCCOC(=O)C1(c2ccccc2)CCCC1.O=C(O)CC(O)(CC(=O)O)C(=O)O [CARBETAPENTANE CITRATE] | Compound metabolized
* CC(CCc1ccccc1)NCC(O)c1ccc(O)c(C(N)=O)c1 (configuration not stated) | Compound NOT metabolized
* CNS(=O)(=O)Cc1ccc2[nH]cc(CCN(C)C)c2c1.O=C(O)CCC(=O)O [SUMATRIPTAN SUCCINATE] | Compound NOT metabolized
* O=C1CN2Cc3c(ccc(Cl)c3Cl)N=C2N1 [ANAGRELIDE] | Compound metabolized
* CSc1ccc2c(c1)C(N1CCN(C)CC1)Cc1ccccc1S2.O=C(O)/C=C\C(=O)O (configuration not stated) | Compound NOT metabolized
* CC(=O)SCC(Cc1ccccc1)C(=O)NCC(=O)OCc1ccccc1 (configuration not stated) | Compound metabolized
* COC(=O)C1=C(C)NC(C)=C(C(=O)OC(C)C)C1c1cccc2nonc12 (configuration not stated) | Compound NOT metabolized
* COc1cc2nc(N3CCN(C(=O)c4ccco4)CC3)nc(N)c2cc1OC | Compound NOT metabolized
* Cc1nc2n(c(=O)c1CCN1CCC(c3noc4cc(F)ccc34)CC1)CCCC2O (configuration not stated) | Compound metabolized
* C[N+]12CCC(CC1)C(OC(=O)C(O)(c1ccccc1)c1ccccc1)C2.[Br-] (configuration not stated) [CLIDINIUM BROMIDE] | Compound NOT metabolized
